system_under_test: human GLP-1 receptor (Homo sapiens, UniProt P43220)
Construct: expressed in transfected cells; host or cells: Chinese hamster ovary (CHO)
Sequence (P43220 24-463): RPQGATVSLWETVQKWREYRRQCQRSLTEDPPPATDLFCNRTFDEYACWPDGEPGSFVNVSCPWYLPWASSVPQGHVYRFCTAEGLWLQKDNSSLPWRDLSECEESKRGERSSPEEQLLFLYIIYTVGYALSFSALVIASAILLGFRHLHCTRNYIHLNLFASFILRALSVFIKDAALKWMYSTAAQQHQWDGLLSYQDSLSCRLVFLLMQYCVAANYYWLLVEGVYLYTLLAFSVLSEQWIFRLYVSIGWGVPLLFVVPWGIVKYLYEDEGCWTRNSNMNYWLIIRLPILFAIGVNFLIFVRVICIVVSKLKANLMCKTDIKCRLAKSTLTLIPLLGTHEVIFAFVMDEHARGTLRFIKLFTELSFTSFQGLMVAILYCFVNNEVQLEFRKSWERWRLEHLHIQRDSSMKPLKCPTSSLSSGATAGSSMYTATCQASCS
assay_info: In vitro cAMP activity in human GLP-1 receptor-expressing CHO cells (LANCE cAMP kit)
Type: cell-based
test_conditions: long-acting conjugate; relative titer from cAMP EC50 compared to human GLP-1
Bridge positions count the residues as written; N and C are the ends. Square brackets hold non-standard residues; d marks the D form. Ends that are not written are not given here. Aib = CC(C)(N)C(=O)O
measured_property: In vitro activity compared to native-type peptide (%) vs GLP-1

substance	quantitative_result
77 (Y[Aib]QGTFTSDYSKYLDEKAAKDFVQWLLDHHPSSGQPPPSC; lactam 16-20) [compound 77]	6.7
42 (Y[Aib]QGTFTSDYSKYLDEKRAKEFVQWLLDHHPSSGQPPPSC; lactam 16-20) [compound 42]	3.1
50 (H[Aib]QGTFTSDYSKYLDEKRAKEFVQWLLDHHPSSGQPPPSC; lactam 16-20) [compound 50]	15.4
21 (Y[Aib]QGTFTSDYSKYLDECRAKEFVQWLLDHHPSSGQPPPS; lactam 16-20) [compound 21]	0.1
22 (Y[Aib]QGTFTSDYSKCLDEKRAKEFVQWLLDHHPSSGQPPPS; lactam 16-20) [compound 22]	0.1
43 (Y[Aib]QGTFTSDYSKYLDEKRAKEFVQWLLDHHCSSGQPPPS; lactam 16-20) [compound 43]	2.1
96 (Y[Aib]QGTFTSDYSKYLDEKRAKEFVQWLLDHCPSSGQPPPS; lactam 16-20) [compound 96]	0.3

---

system_under_test: human GIP receptor (Homo sapiens)
Construct: expressed in transfected cells; host or cells: Chinese hamster ovary (CHO)
Sequence (P48546 22-466): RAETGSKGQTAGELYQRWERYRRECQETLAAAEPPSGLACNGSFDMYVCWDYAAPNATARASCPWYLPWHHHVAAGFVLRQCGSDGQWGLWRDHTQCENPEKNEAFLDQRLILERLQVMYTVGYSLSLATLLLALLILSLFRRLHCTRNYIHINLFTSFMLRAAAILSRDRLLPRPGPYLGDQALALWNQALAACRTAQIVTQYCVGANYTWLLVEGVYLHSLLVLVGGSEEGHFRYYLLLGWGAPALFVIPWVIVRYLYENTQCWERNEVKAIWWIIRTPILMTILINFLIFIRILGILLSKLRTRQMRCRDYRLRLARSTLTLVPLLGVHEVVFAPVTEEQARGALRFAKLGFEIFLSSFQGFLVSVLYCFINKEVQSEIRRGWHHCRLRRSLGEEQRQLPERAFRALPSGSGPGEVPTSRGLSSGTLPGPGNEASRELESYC
assay_info: In vitro cAMP activity in human GIP receptor-expressing CHO cells (LANCE cAMP kit)
Format: cell-based
test_conditions: long-acting conjugate; relative titer from cAMP EC50 compared to human GIP
Bridge positions count the residues as written; N and C are the ends. Square brackets hold non-standard residues; d marks the D form. Ends that are not written are not given here. Aib = CC(C)(N)C(=O)O
measured_property: In vitro activity compared to native-type peptide (%) vs GIP

substance	result
22 (Y[Aib]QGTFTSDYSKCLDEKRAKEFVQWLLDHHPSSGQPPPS; lactam 16-20) [compound 22]	0.5%
21 (Y[Aib]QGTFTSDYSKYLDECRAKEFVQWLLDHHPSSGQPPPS; lactam 16-20) [compound 21]	0.2%
50 (H[Aib]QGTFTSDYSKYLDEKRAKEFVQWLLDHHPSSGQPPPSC; lactam 16-20) [compound 50]	0.7%
